- system.name: TNF-α (Homo sapiens)
- Sequence (P01375 77-233 limits assumed, species assumed): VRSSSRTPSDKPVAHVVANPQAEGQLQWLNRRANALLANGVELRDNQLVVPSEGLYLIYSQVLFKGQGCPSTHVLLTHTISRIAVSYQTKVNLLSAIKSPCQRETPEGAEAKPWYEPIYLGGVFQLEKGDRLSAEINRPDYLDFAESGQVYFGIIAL
- test.summary: SPR of TNF1 lead and mutant peptides on captured TNF-α (Biacore A100)
- Type: binding
- settings: calculated from dissociation constants
Where no end group is shown, it is not given here.
Kind request: treat -7 kcal/mol as inclusive, so Binding ΔG (observed) at -7 kcal/mol or higher is criterion met, anything lower is criterion not met.

These recorded examples may help you get a feel for the data.
residue.sequence	category
FERYPLMMPWKFLQSRQGSC [D4Y + S11K]	criterion met
FERDPLMMPWSFLQSRQGSC [TNF1]	criterion met
FERYPLMMPWSFLQSRQGSC [Synbody D4Y]	criterion met
FERSYLKMPWKFLQSRQGSC [TNF1-opt]	criterion not met

# input Confirm if Binding ΔG (observed) reported for the sequence FERYPLKMPWSFLQSRQGSC [D4Y + M7K] is -7 kcal/mol or above.
# output criterion met
